measured.on: human Mac-1 (integrin αMβ2, CD11b/CD18) (human, UniProt P11215 17-1152; P05107 23-769)
method.summary: flow cytometry, HEK293/Mac-1 cells, PBS/MnCl2 (Mn2+), 10 µg/ml of this antibody; binding of reporter mAb m24 read
quantity.kind: m24 (Expression relative to IgG4)

{"binder": "anti-Mac-1 antibody clone DF4-22 (antibody, human IgG4, V domains shown) VH: EVQLVESGGGLVQPGGSLRLSCAASGFTFTDYNVHWVRQAPGKGLEWVSGINSSGSETNYADSVKGRFTISRDNSKNTLYLQMNSLRAEDTAVYYCARDSVFKTVGGYDAVMDYWGQGTLVTVSS VL: DIQMTQSPSSLSASVGDRVTITCRASQSIYNYLAWYQQKPGKAPKLLIYGTSTLQSGVPSRFSGSGSGTDFTLTISSLQPEDFATYYCMQSYSSPTTFGQGTKVEIK", "recorded.value": "4.37 relative to IgG4"}

IN: Quote m24 (Expression relative to IgG4) reported for anti-Mac-1 antibody clone H4L2 (antibody, human IgG4, V domains shown) VH: QVQLVQSGAEVKKPGASVKVSCKASGYTFTNYWINWVRQAPGQRLEWMGNIYPSDTYINHNQKFKDRVTITRDTSASTAYMELSSLRSEDTAVYYCARSAYANYFDYWGQGTLVTVSS VL: EIVMTQSPATLSVSPGERATLSCRASQNIGTSIHWYQQKPGQAPRLLIYYASESISGIPARFSGSGSGTEFTLTISSLQSEDFAVYYCQQSDSWPTLTFGQGTKLEIK please.
OUT: 0.23 relative to IgG4
